Below, each of the compounds is paired with its reported pIC50 value.
- System tested: UniProtKB A0A024AXB9
- Assay explanation: Functional biochemical assay to identify treatments for viral infectious disease that targets Zika NS2B-NS3 protease. Utilizing a direct enzyme activity measurement method, reading the fluorescence intensity is used to characterize the relative potency of inhibitors as IC50.
- Parameters: species or system PRVABC59
pIC50: −log10 of the molar value.
Readout name: pIC50

INSERT INTO measurements (structure_smiles_string, system_tested, reported_result) VALUES
  ('O=C(O)Cc1c[nH]c2cc(-c3cc(Cl)cc(NC(=O)OCc4ccccc4)c3)ccc12', 'UniProtKB A0A024AXB9', '< 4.00'),
  ('NCc1cccc(NC(=O)[C@@H](NC(=O)OCc2ccccc2)C2CCN(Cc3cn[nH]c3)CC2)c1', 'UniProtKB A0A024AXB9', '< 4.00'),
  ('O=C(N[C@@H](C(=O)NCc1cccc(CN2CCCCC2)c1)c1ccc(OCc2ccccc2)cc1)OCc1ccccc1', 'UniProtKB A0A024AXB9', '< 4.00'),
  ('Cc1c(C(=O)Nc2cccc(-c3ccoc3)c2)cc(C2CC2)n1C', 'UniProtKB A0A024AXB9', '< 4.60'),
  ('O=Cc1ccc(N2CCC(C(=O)N3CCN(CCc4ccccc4)CC3)CC2)cc1', 'UniProtKB A0A024AXB9', '< 4.30');

====

- System tested: UniProtKB A0A024AXB9
- Assay explanation: Functional biochemical assay to identify treatments for viral infectious disease that targets Zika NS2B-NS3 protease. Utilizing a direct enzyme activity measurement method, reading the fluorescence intensity is used to characterize the relative potency of inhibitors as IC50.
- Set-up: species or system PRVABC59
Reported IC50 values for the following molecules.
Readout name: IC50

INSERT INTO results (structure_smiles_string, readout_name, reported_result) VALUES
  ('C[C@@H](NCc1c[nH]c2ccccc12)c1cscn1', 'IC50', '> 99.5 µM'),
  ('Cc1c(C(=O)Nc2cc(CN)ccc2F)cc(C2CC2)n1C', 'IC50', '> 99.5 µM'),
  ('CC[C@@H](Cc1nnn[nH]1)c1ccc(NC(=O)c2cc(Cl)cc(NC(=O)OCc3ccccc3)c2)cc1', 'IC50', '18.7 µM'),
  ('O=C(O)C[C@H]1NCc2cc(NC(=O)c3cc(Cl)cc4[nH]ncc34)ccc21', 'IC50', '0.952 µM'),
  ('CC(C)c1occ(C(F)(F)F)c1C(=O)Nc1cccc(CN)c1', 'IC50', '> 99.5 µM'),
  ('CC1CCN(CC[C@H]2CCCN2C(=O)Nc2ccc3c(c2)CNC3)CC1', 'IC50', '> 25 µM'),
  ('NC[C@H]1CC[C@H](NC(=O)c2cc(Cl)cc3[nH]ncc23)CC1', 'IC50', '20.1 µM'),
  ('CC(C)(O)c1cncc(NC(=O)c2cccc3c2CC(=O)N3)c1', 'IC50', '> 25 µM'),
  ('O=C(Nc1cccc2c1CNC2)c1cc(Cl)cc2[nH]ncc12', 'IC50', '> 25 µM');

====

- System tested: Nonstructural protein 3 (Zika virus, UniProt A0A024AXB9)
- Sequence (A0A024AXB9 whole entry): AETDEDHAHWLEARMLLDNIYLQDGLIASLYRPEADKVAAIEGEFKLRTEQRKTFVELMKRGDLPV
- Assay explanation: Functional biochemical assay to identify treatments for viral infectious disease that targets Zika NS2B-NS3 protease. Utilizing a direct enzyme activity measurement method, reading the fluorescence intensity is used to characterize the relative potency of inhibitors as IC50.
- Parameters: species or system PRVABC59
Readout name: IC50

INSERT INTO assay_data (structure_smiles_string, system_tested, reported_result) VALUES
  ('CN1CCN(Cc2cccc(CNC(=O)[C@@H](NC(=O)OCc3ccccc3)c3ccc(OCc4ccccc4)cc3)c2)CC1', 'Nonstructural protein 3 (Zika virus, UniProt A0A024AXB9)', '> 99.5 µM'),
  ('O=C(Nc1cc([C@H]2CCOC2)ccn1)c1cc(F)cc2[nH]ncc12', 'Nonstructural protein 3 (Zika virus, UniProt A0A024AXB9)', '> 25 µM'),
  ('O=S(=O)(c1ccc(Oc2ccccc2Cl)cc1)n1ccc2cc(Cl)ccc21', 'Nonstructural protein 3 (Zika virus, UniProt A0A024AXB9)', '> 99.5 µM'),
  ('Cc1c(C(=O)Nc2cccc(-c3nnn[nH]3)c2)sc2ccccc12', 'Nonstructural protein 3 (Zika virus, UniProt A0A024AXB9)', '> 99.5 µM'),
  ('C[C@H]1CN(Cc2ccccc2)C[C@@H](C(=O)Nc2cccc(CN)c2)O1', 'Nonstructural protein 3 (Zika virus, UniProt A0A024AXB9)', '> 99.5 µM'),
  ('NCc1cccc(NC(=O)c2cc(NC(=O)OCc3ccccc3)c(=O)n3c2CCCC3)c1', 'Nonstructural protein 3 (Zika virus, UniProt A0A024AXB9)', '> 99.5 µM'),
  ('COc1ccc2[nH]cnc2c1S(=O)(=O)Nc1ccc2c(c1)CNC2', 'Nonstructural protein 3 (Zika virus, UniProt A0A024AXB9)', '> 25 µM'),
  ('NCCNC(=O)c1cc(Cl)ccc1NS(=O)(=O)c1ccc(Oc2ccccc2Cl)cc1', 'Nonstructural protein 3 (Zika virus, UniProt A0A024AXB9)', '> 99.5 µM'),
  ('Cc1cc(CN)cc(NC(=O)c2cc(C3CC3)n(C)c2C)c1', 'Nonstructural protein 3 (Zika virus, UniProt A0A024AXB9)', '> 99.5 µM'),
  ('Cc1c(C(=O)Nc2cccc(CN)c2)cc(C2CC2)n1C', 'Nonstructural protein 3 (Zika virus, UniProt A0A024AXB9)', '> 99.5 µM'),
  ('CCn1ccnc(N2CC[C@H](C#N)C2)c1=O', 'Nonstructural protein 3 (Zika virus, UniProt A0A024AXB9)', '> 99.5 µM'),
  ('CCn1c(=O)c(N2C[C@H](C)C[C@H]2c2ccccc2)nc2ccccc21', 'Nonstructural protein 3 (Zika virus, UniProt A0A024AXB9)', '> 99.5 µM');
